biological target: UniProtKB Q05513; assay: KinaseProfiler off-target kinase profiling; type: biochemical; details: 10 μM, ATP near Km
Sequence (Q05513 whole entry): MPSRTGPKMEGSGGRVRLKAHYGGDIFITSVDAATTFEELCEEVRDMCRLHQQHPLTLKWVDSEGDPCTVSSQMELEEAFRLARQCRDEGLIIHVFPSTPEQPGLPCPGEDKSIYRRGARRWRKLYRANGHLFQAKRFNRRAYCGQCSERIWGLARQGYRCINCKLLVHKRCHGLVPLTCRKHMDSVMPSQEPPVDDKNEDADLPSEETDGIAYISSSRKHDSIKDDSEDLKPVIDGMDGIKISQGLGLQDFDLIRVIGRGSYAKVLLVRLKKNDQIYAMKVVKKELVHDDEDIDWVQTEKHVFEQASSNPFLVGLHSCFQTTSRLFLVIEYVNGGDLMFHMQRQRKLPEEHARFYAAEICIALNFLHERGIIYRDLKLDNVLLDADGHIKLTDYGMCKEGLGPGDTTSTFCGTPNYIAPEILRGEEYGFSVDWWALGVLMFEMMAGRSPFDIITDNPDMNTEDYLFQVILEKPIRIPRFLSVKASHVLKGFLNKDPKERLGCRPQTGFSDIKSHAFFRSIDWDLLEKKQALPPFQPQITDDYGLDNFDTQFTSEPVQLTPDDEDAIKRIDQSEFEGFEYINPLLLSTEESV
property-name: Avg. POC (POC)

compound	Avg. POC (POC)
COCc1ccc2c(c1)C(NC(=O)Nc1c(C)c(-c3cnn(C)c3)nn1-c1ccccc1)COC2 (stereo not shown)	115
Cc1c(-c2cnn(C)c2)nn(-c2ccccc2)c1NC(=O)N[C@H]1CCCc2ccccc21	122.5
Cc1c(-c2cnn(C)c2)nn(-c2ccccc2)c1NC(=O)NC1CCOc2cc(F)ccc21 (stereo not shown)	99.5
Cc1c(-c2ccc(=O)n(C)c2)nn(-c2ccccc2)c1NC(=O)NC1CN(CC(F)(F)F)Cc2ccccc21 (stereo not shown)	108.5

###

biological target: PDGFRalpha (Homo sapiens (Human), UniProt P16234); assay: KinaseProfiler off-target kinase profiling; format: biochemical; conditions: 10 μM, ATP near Km
property-name: Avg. POC (POC)

compound	Avg. POC / POC
Cc1c(-c2cnn(C)c2)nn(-c2ccccc2)c1NC(=O)NC1CCOc2cc(F)ccc21 (stereo not shown)	104.5
Cc1c(-c2ccc(=O)n(C)c2)nn(-c2ccccc2)c1NC(=O)NC1CN(CC(F)(F)F)Cc2ccccc21 (stereo not shown)	104.5
COCc1ccc2c(c1)C(NC(=O)Nc1c(C)c(-c3cnn(C)c3)nn1-c1ccccc1)COC2 (stereo not shown)	112.5
Cc1c(-c2cnn(C)c2)nn(-c2ccccc2)c1NC(=O)N[C@H]1CCCc2ccccc21	123

###

molecular target: CDK2/cyclinA (Homo sapiens (Human)); assay: KinaseProfiler off-target kinase profiling; format: biochemical; conditions: 10 μM, ATP near Km
property-name: Avg. POC (POC)

molecule	Avg. POC (POC)
Cc1c(-c2cnn(C)c2)nn(-c2ccccc2)c1NC(=O)NC1CCOc2cc(F)ccc21 (stereo not shown)	112
COCc1ccc2c(c1)C(NC(=O)Nc1c(C)c(-c3cnn(C)c3)nn1-c1ccccc1)COC2 (stereo not shown)	118
Cc1c(-c2cnn(C)c2)nn(-c2ccccc2)c1NC(=O)N[C@H]1CCCc2ccccc21	127
Cc1c(-c2ccc(=O)n(C)c2)nn(-c2ccccc2)c1NC(=O)NC1CN(CC(F)(F)F)Cc2ccccc21 (stereo not shown)	114.5

###

molecular target: ULK2 (Homo sapiens (Human)); assay: KinaseProfiler off-target kinase profiling; assay type: biochemical; settings: 10 μM, ATP near Km
Sequence (Q8IYT8 whole entry): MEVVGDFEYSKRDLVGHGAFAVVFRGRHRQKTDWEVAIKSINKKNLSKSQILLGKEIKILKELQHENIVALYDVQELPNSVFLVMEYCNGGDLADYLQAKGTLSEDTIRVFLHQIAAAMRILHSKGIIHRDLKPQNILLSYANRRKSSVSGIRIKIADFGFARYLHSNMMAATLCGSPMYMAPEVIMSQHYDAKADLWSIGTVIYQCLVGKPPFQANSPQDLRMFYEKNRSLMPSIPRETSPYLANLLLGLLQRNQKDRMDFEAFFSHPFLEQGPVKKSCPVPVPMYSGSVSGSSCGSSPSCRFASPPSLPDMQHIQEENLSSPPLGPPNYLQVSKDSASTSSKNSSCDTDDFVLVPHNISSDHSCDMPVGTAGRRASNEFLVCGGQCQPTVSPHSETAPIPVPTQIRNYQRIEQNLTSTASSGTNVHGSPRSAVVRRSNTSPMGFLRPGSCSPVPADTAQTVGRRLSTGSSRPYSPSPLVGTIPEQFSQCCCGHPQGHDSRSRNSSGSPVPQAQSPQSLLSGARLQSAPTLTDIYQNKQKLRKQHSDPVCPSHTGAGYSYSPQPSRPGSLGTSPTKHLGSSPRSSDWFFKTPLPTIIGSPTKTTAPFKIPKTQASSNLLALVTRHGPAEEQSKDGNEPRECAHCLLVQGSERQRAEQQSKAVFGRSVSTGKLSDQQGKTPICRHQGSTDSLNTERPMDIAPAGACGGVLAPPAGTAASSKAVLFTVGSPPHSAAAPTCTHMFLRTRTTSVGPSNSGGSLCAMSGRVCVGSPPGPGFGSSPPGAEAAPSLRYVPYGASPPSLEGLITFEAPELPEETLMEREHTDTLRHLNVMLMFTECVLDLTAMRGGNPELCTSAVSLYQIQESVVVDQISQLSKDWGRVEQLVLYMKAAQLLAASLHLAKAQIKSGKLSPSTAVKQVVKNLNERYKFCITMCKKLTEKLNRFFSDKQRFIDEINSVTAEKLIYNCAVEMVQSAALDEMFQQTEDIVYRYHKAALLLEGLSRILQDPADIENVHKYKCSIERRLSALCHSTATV
property-name: Avg. POC (POC)

compound	experimental-value
Cc1c(-c2cnn(C)c2)nn(-c2ccccc2)c1NC(=O)N[C@H]1CCCc2ccccc21	99
COCc1ccc2c(c1)C(NC(=O)Nc1c(C)c(-c3cnn(C)c3)nn1-c1ccccc1)COC2 (stereo not shown)	103
Cc1c(-c2cnn(C)c2)nn(-c2ccccc2)c1NC(=O)NC1CCOc2cc(F)ccc21 (stereo not shown)	99
Cc1c(-c2ccc(=O)n(C)c2)nn(-c2ccccc2)c1NC(=O)NC1CN(CC(F)(F)F)Cc2ccccc21 (stereo not shown)	102

###

Molecular target: CDK1/cyclinB (Homo sapiens (Human))
Sequence (P06493 whole entry): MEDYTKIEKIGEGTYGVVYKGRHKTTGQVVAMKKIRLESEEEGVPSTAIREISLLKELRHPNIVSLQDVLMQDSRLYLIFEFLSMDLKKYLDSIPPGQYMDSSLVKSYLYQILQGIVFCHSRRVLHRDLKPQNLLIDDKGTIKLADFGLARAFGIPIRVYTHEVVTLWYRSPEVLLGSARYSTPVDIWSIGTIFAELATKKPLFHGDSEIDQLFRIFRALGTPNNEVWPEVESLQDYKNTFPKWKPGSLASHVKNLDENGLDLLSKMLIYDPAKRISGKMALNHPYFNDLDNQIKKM
Sequence (P14635 whole entry partner): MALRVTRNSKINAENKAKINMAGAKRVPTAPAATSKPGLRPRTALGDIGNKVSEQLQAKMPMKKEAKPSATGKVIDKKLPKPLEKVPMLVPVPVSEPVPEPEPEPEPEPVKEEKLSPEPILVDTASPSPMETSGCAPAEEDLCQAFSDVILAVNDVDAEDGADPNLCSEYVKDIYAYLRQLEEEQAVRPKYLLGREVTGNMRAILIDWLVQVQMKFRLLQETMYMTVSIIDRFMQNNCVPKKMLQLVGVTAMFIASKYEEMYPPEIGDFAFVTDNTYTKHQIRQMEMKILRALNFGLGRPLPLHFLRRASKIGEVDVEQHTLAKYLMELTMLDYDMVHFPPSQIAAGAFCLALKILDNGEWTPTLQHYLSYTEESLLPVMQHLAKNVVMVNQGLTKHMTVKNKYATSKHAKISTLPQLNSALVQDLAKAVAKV
Experiment: KinaseProfiler off-target kinase profiling
Format: biochemical
Details: 10 μM, ATP near Km
Procedure: Representative compounds (Examples 12, 32, 26 and 2) of the invention were tested for off-target kinase activity at a concentration of 10 μM by Millipore, Inc. in their KinaseProfiler™ service against all the kinases available in their full kinase panel. Compounds were run in duplicate at a concentration of ATP near the Km for each individual kinase according to Millipore's specifications. […]
property-name: Avg. POC (POC)

molecule	experimental-value
Cc1c(-c2cnn(C)c2)nn(-c2ccccc2)c1NC(=O)NC1CCOc2cc(F)ccc21 (stereo not shown) [Example 12]	107.5
Cc1c(-c2cnn(C)c2)nn(-c2ccccc2)c1NC(=O)N[C@H]1CCCc2ccccc21 [Example 2]	122.5
COCc1ccc2c(c1)C(NC(=O)Nc1c(C)c(-c3cnn(C)c3)nn1-c1ccccc1)COC2 (stereo not shown) [Example 32]	104
Cc1c(-c2ccc(=O)n(C)c2)nn(-c2ccccc2)c1NC(=O)NC1CN(CC(F)(F)F)Cc2ccccc21 (stereo not shown) [Example 26]	103

###

molecular target: PAK4 (Homo sapiens (Human), UniProt O96013); experiment: KinaseProfiler off-target kinase profiling; format: biochemical; details: 10 μM, ATP near Km
Sequence (O96013 whole entry): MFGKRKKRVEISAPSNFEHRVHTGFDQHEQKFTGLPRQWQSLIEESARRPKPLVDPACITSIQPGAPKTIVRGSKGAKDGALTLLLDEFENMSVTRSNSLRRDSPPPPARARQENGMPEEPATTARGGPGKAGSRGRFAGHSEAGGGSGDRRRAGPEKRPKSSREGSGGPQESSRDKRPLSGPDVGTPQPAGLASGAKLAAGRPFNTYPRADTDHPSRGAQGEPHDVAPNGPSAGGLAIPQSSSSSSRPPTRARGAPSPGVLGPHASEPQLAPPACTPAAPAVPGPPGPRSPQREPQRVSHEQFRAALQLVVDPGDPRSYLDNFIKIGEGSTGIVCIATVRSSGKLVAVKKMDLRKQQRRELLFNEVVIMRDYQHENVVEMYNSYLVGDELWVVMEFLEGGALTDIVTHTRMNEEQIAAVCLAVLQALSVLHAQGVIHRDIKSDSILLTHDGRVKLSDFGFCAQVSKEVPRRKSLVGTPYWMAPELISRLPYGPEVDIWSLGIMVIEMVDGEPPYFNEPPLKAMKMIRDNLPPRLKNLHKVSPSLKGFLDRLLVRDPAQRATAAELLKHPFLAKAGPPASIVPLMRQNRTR
property-name: Avg. POC (POC)

compound	Avg. POC [POC]
Cc1c(-c2cnn(C)c2)nn(-c2ccccc2)c1NC(=O)NC1CCOc2cc(F)ccc21 (stereo not shown)	103
Cc1c(-c2ccc(=O)n(C)c2)nn(-c2ccccc2)c1NC(=O)NC1CN(CC(F)(F)F)Cc2ccccc21 (stereo not shown)	100.5
Cc1c(-c2cnn(C)c2)nn(-c2ccccc2)c1NC(=O)N[C@H]1CCCc2ccccc21	95
COCc1ccc2c(c1)C(NC(=O)Nc1c(C)c(-c3cnn(C)c3)nn1-c1ccccc1)COC2 (stereo not shown)	98

###

target: ARK5 (Homo sapiens (Human)); assay: KinaseProfiler off-target kinase profiling; format: biochemical; settings: 10 μM, ATP near Km
Sequence (O60285 whole entry): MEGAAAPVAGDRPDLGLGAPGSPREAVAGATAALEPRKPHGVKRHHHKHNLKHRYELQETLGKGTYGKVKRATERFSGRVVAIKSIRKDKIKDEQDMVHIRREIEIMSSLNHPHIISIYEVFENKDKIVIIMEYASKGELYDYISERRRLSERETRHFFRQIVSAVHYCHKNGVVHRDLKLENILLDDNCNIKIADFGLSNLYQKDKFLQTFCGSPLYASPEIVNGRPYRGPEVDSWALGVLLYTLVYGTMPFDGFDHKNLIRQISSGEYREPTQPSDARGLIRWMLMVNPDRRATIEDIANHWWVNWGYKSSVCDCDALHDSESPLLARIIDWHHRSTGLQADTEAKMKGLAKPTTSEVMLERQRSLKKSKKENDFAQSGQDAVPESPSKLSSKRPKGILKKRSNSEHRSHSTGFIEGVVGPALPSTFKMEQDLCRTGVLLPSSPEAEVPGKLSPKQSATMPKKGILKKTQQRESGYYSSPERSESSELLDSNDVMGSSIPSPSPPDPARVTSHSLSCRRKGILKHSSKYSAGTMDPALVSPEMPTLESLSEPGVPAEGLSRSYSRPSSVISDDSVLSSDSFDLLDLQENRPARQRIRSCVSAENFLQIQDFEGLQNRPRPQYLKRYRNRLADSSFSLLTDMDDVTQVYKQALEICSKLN
property-name: Avg. POC (POC)

compound	property-name	units-label	experimental-value
Cc1c(-c2cnn(C)c2)nn(-c2ccccc2)c1NC(=O)N[C@H]1CCCc2ccccc21 [Example 2]	Avg. POC	POC	109.5
Cc1c(-c2cnn(C)c2)nn(-c2ccccc2)c1NC(=O)NC1CCOc2cc(F)ccc21 (stereo not shown) [Example 12]	Avg. POC	POC	99.5
COCc1ccc2c(c1)C(NC(=O)Nc1c(C)c(-c3cnn(C)c3)nn1-c1ccccc1)COC2 (stereo not shown) [Example 32]	Avg. POC	POC	118.5
Cc1c(-c2ccc(=O)n(C)c2)nn(-c2ccccc2)c1NC(=O)NC1CN(CC(F)(F)F)Cc2ccccc21 (stereo not shown) [Example 26]	Avg. POC	POC	100.5

###

biological target: KDR (Homo sapiens (Human)); experiment: KinaseProfiler off-target kinase profiling; type: biochemical; conditions: 10 μM, ATP near Km
property-name: Avg. POC (POC)

compound	experimental-value
Cc1c(-c2cnn(C)c2)nn(-c2ccccc2)c1NC(=O)N[C@H]1CCCc2ccccc21	123.5
Cc1c(-c2cnn(C)c2)nn(-c2ccccc2)c1NC(=O)NC1CCOc2cc(F)ccc21 (stereo not shown)	119.5
Cc1c(-c2ccc(=O)n(C)c2)nn(-c2ccccc2)c1NC(=O)NC1CN(CC(F)(F)F)Cc2ccccc21 (stereo not shown)	144.5
COCc1ccc2c(c1)C(NC(=O)Nc1c(C)c(-c3cnn(C)c3)nn1-c1ccccc1)COC2 (stereo not shown)	129

###

target: LIMK1 (Homo sapiens (Human), UniProt P53667); test: KinaseProfiler off-target kinase profiling; type: biochemical; settings: 10 μM, ATP near Km
Sequence (P53667 whole entry): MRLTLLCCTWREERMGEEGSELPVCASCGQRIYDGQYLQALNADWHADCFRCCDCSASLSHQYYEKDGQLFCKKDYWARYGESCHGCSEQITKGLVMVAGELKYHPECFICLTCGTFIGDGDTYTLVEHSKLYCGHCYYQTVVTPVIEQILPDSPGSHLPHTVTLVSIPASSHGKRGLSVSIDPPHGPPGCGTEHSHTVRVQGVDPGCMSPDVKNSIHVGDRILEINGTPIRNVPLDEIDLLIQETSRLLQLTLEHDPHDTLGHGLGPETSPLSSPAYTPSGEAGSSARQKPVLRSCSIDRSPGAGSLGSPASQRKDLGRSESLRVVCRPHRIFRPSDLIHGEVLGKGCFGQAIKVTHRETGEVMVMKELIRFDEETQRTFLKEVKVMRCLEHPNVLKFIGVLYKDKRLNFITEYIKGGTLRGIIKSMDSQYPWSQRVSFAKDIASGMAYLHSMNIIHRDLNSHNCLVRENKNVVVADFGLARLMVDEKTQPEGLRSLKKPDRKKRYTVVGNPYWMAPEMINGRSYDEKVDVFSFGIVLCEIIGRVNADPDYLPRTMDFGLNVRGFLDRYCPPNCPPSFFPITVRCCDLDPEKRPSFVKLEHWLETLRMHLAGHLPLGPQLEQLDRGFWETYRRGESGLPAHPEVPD
property-name: Avg. POC (POC)

compound	units-label	Avg. POC
Cc1c(-c2cnn(C)c2)nn(-c2ccccc2)c1NC(=O)NC1CCOc2cc(F)ccc21 (stereo not shown) [Example 12]	POC	97.5
Cc1c(-c2cnn(C)c2)nn(-c2ccccc2)c1NC(=O)N[C@H]1CCCc2ccccc21 [Example 2]	POC	105
Cc1c(-c2ccc(=O)n(C)c2)nn(-c2ccccc2)c1NC(=O)NC1CN(CC(F)(F)F)Cc2ccccc21 (stereo not shown) [Example 26]	POC	102
COCc1ccc2c(c1)C(NC(=O)Nc1c(C)c(-c3cnn(C)c3)nn1-c1ccccc1)COC2 (stereo not shown) [Example 32]	POC	95

###

Below, each entry is listed with its recorded pIC50.
target: His-tagged recombinant human TrkA (Homo sapiens (Human), UniProt P04629); experiment: TrkA LanthaScreen Eu Kinase Binding Assay; conditions: averaged IC50; TR-FRET binding, 60 min, 22° C.; read-out: TrkA Enzyme IC50
pIC50: −log10 of the molar value.

compound	pIC50
Cc1c(-c2cnn(C)c2)nn(-c2ccccc2)c1NC(=O)NC1CCC(C)(O)c2ccccc21 (stereo not shown)	6.00 to 7.00
COCCO[C@@H]1Cc2ccccc2[C@H]1NC(=O)Nc1c2c(nn1-c1ccccc1)CCC2	6.00 to 7.00
Cc1c(-c2cnn(C)c2)nn(-c2ccccc2)c1NC(=O)N[C@@H]1CCCc2ccccc21	6.00 to 7.00
Cc1ncc(-c2nn(-c3ccccc3)c(NC(=O)N[C@@H]3c4ccccc4CCC[C@H]3O)c2C)cn1 (relative stereo)	6.00 to 7.00
Cc1c(-c2ccn(C)c(=O)c2)nn(-c2ccccc2)c1NC(=O)N[C@@H]1c2ccccc2C(C)(C)C[C@H]1O (relative stereo)	> 7.00
Cc1c(-c2cnn(C)c2)nn(-c2ccccc2)c1NC(=O)N[C@@H]1c2ccccc2OC2(CCC2)[C@H]1O (relative stereo)	> 7.00

Task: Consider the compound Cc1c(-c2cnn(C)c2)nn(-c2ccccc2)c1NC(=O)NC1COCc2ccccc21 (stereo not shown) and give its measured pIC50.
Output: 6.00 to 7.00

###

molecular target: UniProt:P45984; test: KinaseProfiler off-target kinase profiling; format: biochemical; details: 10 μM, ATP near Km
Sequence (P45984 whole entry): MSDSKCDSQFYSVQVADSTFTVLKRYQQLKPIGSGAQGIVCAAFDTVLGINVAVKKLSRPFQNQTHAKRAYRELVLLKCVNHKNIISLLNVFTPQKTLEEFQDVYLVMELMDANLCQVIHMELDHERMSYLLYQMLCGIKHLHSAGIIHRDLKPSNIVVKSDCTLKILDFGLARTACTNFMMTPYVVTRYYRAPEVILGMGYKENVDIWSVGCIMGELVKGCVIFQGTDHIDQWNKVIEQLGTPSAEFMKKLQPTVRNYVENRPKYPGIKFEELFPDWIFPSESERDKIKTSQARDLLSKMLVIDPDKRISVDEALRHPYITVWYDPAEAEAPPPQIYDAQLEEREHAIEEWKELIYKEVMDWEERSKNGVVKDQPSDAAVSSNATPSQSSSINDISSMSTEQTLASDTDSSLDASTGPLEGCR
property-name: Avg. POC (POC)

compound	property-name	units-label	experimental-value
COCc1ccc2c(c1)C(NC(=O)Nc1c(C)c(-c3cnn(C)c3)nn1-c1ccccc1)COC2 (stereo not shown)	Avg. POC	POC	102.5
Cc1c(-c2cnn(C)c2)nn(-c2ccccc2)c1NC(=O)NC1CCOc2cc(F)ccc21 (stereo not shown)	Avg. POC	POC	96
Cc1c(-c2cnn(C)c2)nn(-c2ccccc2)c1NC(=O)N[C@H]1CCCc2ccccc21	Avg. POC	POC	103.5
Cc1c(-c2ccc(=O)n(C)c2)nn(-c2ccccc2)c1NC(=O)NC1CN(CC(F)(F)F)Cc2ccccc21 (stereo not shown)	Avg. POC	POC	104
